Source: patent US20220144812A1

test.target: EP300 (P300(1048-1664)) (Homo sapiens)
Construct: P300(1048-1664)
Sequence (Q09472 1048-1664): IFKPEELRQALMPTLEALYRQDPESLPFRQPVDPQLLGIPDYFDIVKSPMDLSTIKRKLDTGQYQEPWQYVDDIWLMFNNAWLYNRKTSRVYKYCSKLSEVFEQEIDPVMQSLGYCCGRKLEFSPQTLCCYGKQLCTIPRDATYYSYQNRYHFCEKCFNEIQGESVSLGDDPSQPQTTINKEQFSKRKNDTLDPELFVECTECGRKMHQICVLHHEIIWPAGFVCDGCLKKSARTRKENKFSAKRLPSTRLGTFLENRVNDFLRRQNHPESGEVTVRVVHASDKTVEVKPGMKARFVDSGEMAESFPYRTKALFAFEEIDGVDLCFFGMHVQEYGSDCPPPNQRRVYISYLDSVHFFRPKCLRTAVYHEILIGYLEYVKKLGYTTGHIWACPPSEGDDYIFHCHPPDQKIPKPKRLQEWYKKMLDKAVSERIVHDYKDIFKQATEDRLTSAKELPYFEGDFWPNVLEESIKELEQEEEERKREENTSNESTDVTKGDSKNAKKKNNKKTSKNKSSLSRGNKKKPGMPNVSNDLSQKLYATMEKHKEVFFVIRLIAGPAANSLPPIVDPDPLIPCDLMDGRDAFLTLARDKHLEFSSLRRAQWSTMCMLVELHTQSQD
protocol.details: Biochemical assay for EP300, SAMDI
test.conditions: EP300, SAMDI; read-out: EP300 Biochemistry IC50
property.measured: pIC50
In plain terms, pIC50 is the concentration in mol/L turned into minus its base-10 logarithm.

## Task Given the entry CCn1ncc(CN(C)C(=O)c2nc(-c3ccc(OCCCNC(=O)OC(C)(C)C)c(C)c3)nc3ccc(Cl)cc23)c1C [Compound 147] , report its measured pIC50.
## Result 5.10

## Task What would you report for CCc1ncc(CN(C)C(=O)c2nc(-c3cc(C)cc(NC4CNC4)c3)nc3ccc(Cl)cc23)n1C [Compound 566] ?
## Result 7.95

## Task What would you report for CCn1ncc(CN(C)C(=O)c2cc(-c3csc(CNC)n3)nc3ccc(Cl)cc23)c1C [Compound 138] ?
## Result 5.28

---

test.target: CREBBP (1084-1701) (Homo sapiens, UniProt Q92793)
Construct: measured in the following biochemical assay using CREBBP (1084-1701); purchased
Sequence (Q92793 1084-1701): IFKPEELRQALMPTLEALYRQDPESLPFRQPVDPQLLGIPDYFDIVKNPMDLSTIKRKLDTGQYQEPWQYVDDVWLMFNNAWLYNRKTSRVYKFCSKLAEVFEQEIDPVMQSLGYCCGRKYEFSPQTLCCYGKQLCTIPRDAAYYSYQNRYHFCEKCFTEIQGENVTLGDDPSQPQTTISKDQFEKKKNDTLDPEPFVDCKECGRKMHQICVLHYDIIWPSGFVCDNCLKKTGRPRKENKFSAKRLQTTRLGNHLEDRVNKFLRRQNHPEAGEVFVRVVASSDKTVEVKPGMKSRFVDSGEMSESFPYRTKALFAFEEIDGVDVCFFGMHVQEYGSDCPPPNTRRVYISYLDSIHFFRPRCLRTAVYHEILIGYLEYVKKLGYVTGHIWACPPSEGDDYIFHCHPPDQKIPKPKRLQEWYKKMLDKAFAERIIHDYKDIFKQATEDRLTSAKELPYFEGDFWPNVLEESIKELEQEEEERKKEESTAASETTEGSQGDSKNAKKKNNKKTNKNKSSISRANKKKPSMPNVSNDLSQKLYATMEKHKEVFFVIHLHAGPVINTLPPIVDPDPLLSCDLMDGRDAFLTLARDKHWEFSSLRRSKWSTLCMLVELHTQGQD
protocol.details: Biochemical assay for CREBBP (1084-1701), SAMDI
test.conditions: SAMDI, read-out: CREBBP Biochemistry IC50
property.measured: log10 of IC50 (log10 of the value in nM)
Please be aware that the numbers have been log10-transformed from IC50 in nM.

Some compounds with recorded log10 of IC50:
{"columns": ["smiles.notation", "log10 of IC50"],
 "data": [
  ["CCn1ncc(CN(C)C(=O)c2nc(-c3cc(Cl)c4nc[nH]c4c3)nc3ccc(COC)cc23)c1C", 1.08],
  ["CCn1ncc(CN(C)C(=O)c2cc(-c3ccccc3Cl)nc3cc(OC)ccc23)c1C", 5.13],
  ["CCn1nc(C)c(CN(C)C(=O)c2cc(-c3ccc(NCCNC)c(C)n3)nc3ccc(Cl)cc23)c1C", 4.15],
  ["CCn1ncc(CN(C(=O)c2cc(-c3ccc(NCCNC)c(C)n3)nc3ccc(Cl)cc23)C(C)C)c1C", 2.56],
  ["CCn1ncc(CN(C)C(=O)c2cc(-c3cc(NCCNC)cc(C)n3)nc3ccc(Cl)cc23)c1C", 1.87],
  ["CCn1ncc(CN(C)C(=O)c2nc(-c3ccc(OCCCNC(C)C)c(C)c3)nc3ccc(Cl)cc23)c1C", 1.45],
  ["CCn1ncc(CN(C)C(=O)c2nc(-c3cc(C(=O)NC)nn3C)nc3ccc(P(C)(C)=O)cc23)c1C", 4.70],
  ["CCn1ncc(CN(C)C(=O)c2nc(-c3cscn3)nc3ccc(Cl)cc23)c1C", 3.28]
]}

## Task Request body: readout log10 of IC50, system CREBBP (1084-1701) (Homo sapiens, UniProt Q92793), query CCc1ncc(CN(C)C(=O)c2nc(-c3cc(C)cc(NC4CNC4)c3)nc3ccc(Cl)cc23)n1C . Return the value.
## Result 1.57

## Task What would you report for CCn1ncc(CN(C)C(=O)c2nc(-c3cc(C)cc(NCC(=O)NC)c3)nc3ccc(Cl)cc23)c1C ?
## Result 2.63

## Task What would you report for CCn1ncc(CN(C)C(=O)c2nc(-c3ccc(OCCCN(C)C(=O)OC(C)(C)C)c(C)c3Cl)nc3ccc(Cl)cc23)c1C ?
## Result 2.15

## Task What would you report for CCn1ncc(CN(C)C(=O)c2cc(-c3ccc(OCCO)c(C)n3)nc3ccc(Cl)cc23)c1C ?
## Result 1.87

## Task What would you report for CCn1ncc(CN(C)C(=O)c2cc(-c3csc(C)n3)nc3ccc(Cl)cc23)c1C ?
## Result 2.53

## Task What would you report for CCn1ncc(CN(C)C(=O)c2nc(-c3cc(C)c4c(N)n[nH]c4c3)nc3ccc(COC)cc23)c1C ?
## Result 1.20

## Task What would you report for CCn1ncc(CN(C)C(=O)c2cc(-c3ccc(NCCNC)c(C)n3)nc3ccc(Cl)cc23)c1COC ?
## Result 2.77
